Target: Progesterone receptor (Homo sapiens, UniProt P06401)
Sequence (P06401 whole entry): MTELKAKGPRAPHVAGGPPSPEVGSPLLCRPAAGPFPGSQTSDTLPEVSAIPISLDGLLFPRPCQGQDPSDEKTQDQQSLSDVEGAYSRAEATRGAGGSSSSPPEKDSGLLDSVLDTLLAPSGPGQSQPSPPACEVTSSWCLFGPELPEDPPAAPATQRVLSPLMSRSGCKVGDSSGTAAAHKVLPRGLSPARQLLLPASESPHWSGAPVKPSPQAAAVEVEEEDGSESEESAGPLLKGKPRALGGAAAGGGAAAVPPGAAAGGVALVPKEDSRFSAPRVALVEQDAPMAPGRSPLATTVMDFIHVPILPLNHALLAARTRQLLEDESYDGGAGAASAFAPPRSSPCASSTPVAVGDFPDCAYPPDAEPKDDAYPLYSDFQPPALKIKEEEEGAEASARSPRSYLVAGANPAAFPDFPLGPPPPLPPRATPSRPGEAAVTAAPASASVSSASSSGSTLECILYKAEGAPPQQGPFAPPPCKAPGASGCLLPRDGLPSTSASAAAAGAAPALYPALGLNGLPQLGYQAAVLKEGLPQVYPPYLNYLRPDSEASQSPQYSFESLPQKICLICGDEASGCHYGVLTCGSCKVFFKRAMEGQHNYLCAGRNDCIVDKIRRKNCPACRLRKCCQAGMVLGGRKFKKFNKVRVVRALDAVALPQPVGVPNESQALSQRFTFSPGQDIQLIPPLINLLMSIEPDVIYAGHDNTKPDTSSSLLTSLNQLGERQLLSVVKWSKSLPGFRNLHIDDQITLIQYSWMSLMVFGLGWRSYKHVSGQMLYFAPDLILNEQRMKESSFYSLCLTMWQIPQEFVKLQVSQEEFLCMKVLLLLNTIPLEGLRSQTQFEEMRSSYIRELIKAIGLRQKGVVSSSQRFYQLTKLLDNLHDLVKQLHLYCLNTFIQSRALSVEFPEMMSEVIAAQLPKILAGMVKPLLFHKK
In this section we review reported pIC50 values for a set of molecules.
A value of pIC50 is the negative decimal logarithm of a concentration given in moles per litre.

Below: 3 molecules and their reported pIC50.
Cc1c(NS(C)(=O)=O)cccc1N(Cc1ccccc1)Cc1ccc(Oc2ccc(OCC(=O)O)cc2)cc1 5.77
CC#C[C@]1(O)CC[C@H]2[C@@H]3CCC4=CC(=O)CC[C@]4(Cc4ccc(C)cc4)C3=CC[C@@]21C 5.62
Cc1c(NS(C)(=O)=O)cccc1N(Cc1ccc(Oc2ccc(F)c(OCC(=O)O)c2)cc1)Cc1ccc(F)cc1F 6.74

Alright, here's another molecule for you.
For `Cc1c(NS(C)(=O)=O)cccc1N(Cc1ccc(Oc2ccc(Cl)c(OCC(=O)O)c2)cc1)Cc1ccc(F)cc1F` , what is its reported pIC50?
6.82

###

assay: Compound level in liver in ob/ob mice after 13 days of […] mpk oral dose of compound; format: ADME, tissue-based; conditions: mouse, 30 mg/kg, read-out: Level
metric: concentration at 312 h
Answers without a unit are incomplete; give the number and then its unit.

For `Cc1c(NS(C)(=O)=O)cccc1N(Cc1ccc(Oc2ccc(F)c(OCC(=O)O)c2)cc1)Cc1ccc(F)cc1F` , what is its reported concentration at 312 h?
20000 ng/g

###

molecular target: Mineralocorticoid receptor (Homo sapiens, UniProt P08235); assay: Inhibition of human mineralocorticoid receptor
Sequence (P08235 whole entry): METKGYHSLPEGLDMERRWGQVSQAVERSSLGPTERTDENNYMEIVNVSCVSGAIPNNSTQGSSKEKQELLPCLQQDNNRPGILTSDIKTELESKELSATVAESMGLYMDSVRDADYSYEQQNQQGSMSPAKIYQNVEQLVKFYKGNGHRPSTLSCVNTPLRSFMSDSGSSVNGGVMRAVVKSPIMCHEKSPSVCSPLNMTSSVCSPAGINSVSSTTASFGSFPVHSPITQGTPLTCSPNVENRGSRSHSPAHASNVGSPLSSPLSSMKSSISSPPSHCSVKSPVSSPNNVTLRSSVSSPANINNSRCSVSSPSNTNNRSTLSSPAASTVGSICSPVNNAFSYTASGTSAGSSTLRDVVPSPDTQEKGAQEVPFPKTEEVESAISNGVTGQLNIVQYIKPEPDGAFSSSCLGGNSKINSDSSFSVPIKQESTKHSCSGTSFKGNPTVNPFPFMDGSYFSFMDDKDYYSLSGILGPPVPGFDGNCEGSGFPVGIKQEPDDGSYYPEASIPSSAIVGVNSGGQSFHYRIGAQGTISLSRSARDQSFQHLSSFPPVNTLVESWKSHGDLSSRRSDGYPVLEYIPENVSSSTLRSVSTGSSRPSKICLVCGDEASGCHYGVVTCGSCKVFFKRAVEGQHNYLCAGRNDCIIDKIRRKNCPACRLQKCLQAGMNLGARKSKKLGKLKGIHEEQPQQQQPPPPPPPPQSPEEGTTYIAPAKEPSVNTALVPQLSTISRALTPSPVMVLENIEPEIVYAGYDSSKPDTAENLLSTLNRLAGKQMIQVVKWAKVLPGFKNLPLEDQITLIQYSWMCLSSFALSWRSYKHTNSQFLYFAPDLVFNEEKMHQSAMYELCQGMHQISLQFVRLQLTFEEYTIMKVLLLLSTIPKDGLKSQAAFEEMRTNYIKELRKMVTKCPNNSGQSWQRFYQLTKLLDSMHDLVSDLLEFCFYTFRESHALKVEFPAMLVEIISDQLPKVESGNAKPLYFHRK
In this section we review reported IC50 values for a set of compounds.
Give a bare numeral; the unit nM is implied.

Cc1c(NS(C)(=O)=O)cccc1N(Cc1ccc(Oc2ccc(Cl)c(OCC(=O)O)c2)cc1)Cc1ccc(F)cc1F 1000
CC#C[C@]1(O)CC[C@H]2[C@@H]3CCC4=CC(=O)CC[C@]4(Cc4ccc(C)cc4)C3=CC[C@@]21C 6300

Alright, here's another compound for you.
For `Cc1c(NS(C)(=O)=O)cccc1N(Cc1ccccc1)Cc1ccc(Oc2ccc(OCC(=O)O)cc2)cc1` , what is its reported IC50?
690

###

assay: Plasma protein binding of tritium labeled compound in mouse plasma was determined; type: ADME, cell-free; details: read-out: Protein binding (converted)
metric: fraction unbound
No unit in the answer, only the number.

For `Cc1c(NS(C)(=O)=O)cccc1N(Cc1ccc(Oc2ccc(F)c(OCC(=O)O)c2)cc1)Cc1ccc(F)cc1F` , what is its reported fraction unbound?
0.003

###

assay: Oral bioavailability in SD rats after 5 mg/kg oral dose; format: ADME, organism-based; conditions: Sprague-Dawley, rat, in vivo
metric: bioavailability (%)
Give a bare numeral; the unit % is implied.

For `Cc1c(NS(C)(=O)=O)cccc1N(Cc1ccc(Oc2ccc(F)c(OCC(=O)O)c2)cc1)Cc1ccc(F)cc1F` , what is its reported bioavailability?
40
